- MEASUREMENT TARGET: dopamine D1 receptor (Homo sapiens, UniProt P21728)
- Sequence (P21728 whole entry): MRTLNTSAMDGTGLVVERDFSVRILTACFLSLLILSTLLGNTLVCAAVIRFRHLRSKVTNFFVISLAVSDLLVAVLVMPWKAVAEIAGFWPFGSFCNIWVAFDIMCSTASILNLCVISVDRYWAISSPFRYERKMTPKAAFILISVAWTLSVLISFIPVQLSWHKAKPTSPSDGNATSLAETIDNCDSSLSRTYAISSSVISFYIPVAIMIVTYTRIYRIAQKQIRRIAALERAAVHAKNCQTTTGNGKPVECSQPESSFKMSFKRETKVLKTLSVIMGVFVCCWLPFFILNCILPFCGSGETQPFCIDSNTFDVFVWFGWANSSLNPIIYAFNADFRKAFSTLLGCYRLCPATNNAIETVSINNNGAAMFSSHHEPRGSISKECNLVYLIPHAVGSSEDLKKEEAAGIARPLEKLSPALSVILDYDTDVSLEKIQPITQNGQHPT
- ASSAY PROTOCOL: cAMP HTRF potentiation assay (in the presence of dopamine)
- EXPERIMENTAL CONTEXT: potentiation of cAMP with [EC20] of dopamine (1.1 nM); LMtk (Ltk−) mouse fibroblast cells expressing the dopamine D1 receptor
ENDPOINT LABEL: EC50
The answer consists of two parts: a number and, after it, its unit.

Some solved entries appear below for comparison.
CC(O)c1ncc(Cl)c(CC(=O)N2CC[C@H]3[C@H]([C@H](O)C(F)(F)F)CCC[C@@H]3[C@@H]2C)c1Cl (single isomer, unassigned) [Example 9-B] ... 25.1 nM
COc1ccc(C#N)c(CC(=O)N2CC[C@H]3C(C#CC(C)(C)O)CCC[C@@H]3[C@@H]2C)c1Cl (stereo partly shown) ... 158 nM
CC(O)c1ncc(Cl)c(CC(=O)N2CC[C@H]3[C@H]([C@H](O)C(F)F)CCC[C@@H]3[C@@H]2C)c1Cl (single isomer, unassigned) [Example 17-A] ... 158 nM

Attention now shifts to the item below.
Q: For the compound shown here, CC(O)c1ncc(Cl)c(CC(=O)N2CC[C@H]3[C@H](CCC(C)(C)O)CCC[C@@H]3[C@@H]2C)c1Cl (single isomer, unassigned) [Example 24-B] , give the reported EC50.
Ans: 39.8 nM

====

- MEASUREMENT TARGET: dopamine D1 receptor (Homo sapiens, UniProt P21728)
- ASSAY PROTOCOL: cAMP HTRF potentiation assay (in the presence of dopamine)
- EXPERIMENTAL CONTEXT: potentiation of cAMP with [EC20] of dopamine (1.1 nM); LMtk (Ltk−) mouse fibroblast cells expressing the dopamine D1 receptor
ENDPOINT LABEL: EC50
The answer consists of two parts: a number and, after it, its unit.

Q: For the molecule shown here, C[C@H]1[C@H]2CCC[C@@H]([C@@H](O)C(F)(F)F)[C@@H]2CCN1C(=O)Cc1c(Cl)cnc(C(C)(O)C(F)F)c1Cl (single isomer, unassigned) , give the reported EC50.
Ans: 79.4 nM

Q: For the molecule shown here, CC(O)c1ncc(Cl)c(CC(=O)N2CC[C@H]3[C@H]([C@H](O)C(F)F)CCC[C@@H]3[C@@H]2C)c1Cl (single isomer, unassigned) [Example 17-B] , give the reported EC50.
Ans: 126 nM

Q: For the molecule shown here, CC(O)c1ncc(Cl)c(CC(=O)N2CC[C@H]3[C@H](CCC(C)(C)O)CCC[C@@H]3[C@@H]2C)c1Cl (single isomer, unassigned) [Example 24-A] , give the reported EC50.
Ans: 79.4 nM

Q: For the molecule shown here, C[C@H]1[C@H]2CCCC([C@@H](O)C(F)(F)F)[C@@H]2CCN1C(=O)Cc1c(Cl)ccc2c1c(Cl)nn2C (single isomer, unassigned) [Example 8-B] , give the reported EC50.
Ans: 126 nM

====

Consider the following compounds and their measured inhibition at 10 µM readings.
- MEASUREMENT TARGET: human GABAA receptor α1β2 and γ2 subunits (Homo sapiens, UniProt P14867+P18507+P47870)
- Construct: expressed in transfected cells
- Sequence (P14867 28-456): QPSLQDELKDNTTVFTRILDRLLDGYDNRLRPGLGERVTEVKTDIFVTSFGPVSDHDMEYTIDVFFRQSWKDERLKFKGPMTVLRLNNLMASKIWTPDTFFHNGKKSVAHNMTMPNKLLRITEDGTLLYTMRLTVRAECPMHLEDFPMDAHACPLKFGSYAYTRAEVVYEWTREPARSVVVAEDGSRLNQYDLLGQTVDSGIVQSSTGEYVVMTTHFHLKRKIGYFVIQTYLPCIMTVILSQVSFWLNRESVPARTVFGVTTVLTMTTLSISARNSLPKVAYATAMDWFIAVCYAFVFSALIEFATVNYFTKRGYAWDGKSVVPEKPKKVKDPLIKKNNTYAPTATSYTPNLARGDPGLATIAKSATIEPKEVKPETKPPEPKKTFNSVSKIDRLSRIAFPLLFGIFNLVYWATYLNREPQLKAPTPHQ
- Sequence (P47870 25-512 limits assumed): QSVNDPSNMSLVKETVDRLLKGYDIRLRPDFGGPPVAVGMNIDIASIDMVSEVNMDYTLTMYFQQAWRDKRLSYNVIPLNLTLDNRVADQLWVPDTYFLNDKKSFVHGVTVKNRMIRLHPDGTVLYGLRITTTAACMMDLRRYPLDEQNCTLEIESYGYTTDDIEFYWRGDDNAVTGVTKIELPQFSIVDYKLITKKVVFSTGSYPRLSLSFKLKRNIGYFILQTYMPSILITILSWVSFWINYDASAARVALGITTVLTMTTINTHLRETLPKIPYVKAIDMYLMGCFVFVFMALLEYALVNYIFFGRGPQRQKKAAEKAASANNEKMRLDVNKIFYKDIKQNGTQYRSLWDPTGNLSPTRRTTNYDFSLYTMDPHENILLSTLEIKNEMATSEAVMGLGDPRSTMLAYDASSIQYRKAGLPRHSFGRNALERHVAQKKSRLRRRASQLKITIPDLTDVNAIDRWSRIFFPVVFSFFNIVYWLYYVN
- Sequence (P18507 40-475): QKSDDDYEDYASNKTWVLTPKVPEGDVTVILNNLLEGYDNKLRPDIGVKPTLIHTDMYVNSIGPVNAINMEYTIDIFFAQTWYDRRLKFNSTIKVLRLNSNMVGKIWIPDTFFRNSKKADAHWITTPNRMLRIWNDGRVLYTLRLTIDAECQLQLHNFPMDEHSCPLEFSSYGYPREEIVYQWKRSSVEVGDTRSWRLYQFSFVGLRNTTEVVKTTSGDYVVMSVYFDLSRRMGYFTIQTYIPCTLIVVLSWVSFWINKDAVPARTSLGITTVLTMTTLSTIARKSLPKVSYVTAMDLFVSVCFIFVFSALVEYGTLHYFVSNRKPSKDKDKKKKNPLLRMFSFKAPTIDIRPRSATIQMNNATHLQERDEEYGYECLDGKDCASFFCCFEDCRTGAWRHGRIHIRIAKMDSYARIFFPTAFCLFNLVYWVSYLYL
- ASSAY PROTOCOL: Automated patch clamp studies on the GABAA receptor cells
- Assay type: cell-based
- EXPERIMENTAL CONTEXT: CHO-K1, 10 μM compound, 15 μM GABA, Table B
Numbers only here, please. The scale is %.

Some solved entries appear below for comparison.
C[C@H]1[C@H]2CCC[C@@H]([C@H](O)C(F)(F)F)[C@@H]2CCN1C(=O)Cc1c(Cl)cnc(C(C)(C)O)c1Cl ... -8
COc1ncc(Cl)c(CC(=O)N2CC[C@H]3[C@H]([C@H](O)C(F)(F)F)CCC[C@@H]3[C@@H]2C)c1Cl ... 13.8
C[C@H]1[C@H]2CCC[C@@H]([C@H](O)C(F)(F)F)[C@@H]2CCN1C(=O)Cc1c(Cl)ccc2nnc(Cl)n12 ... 6

Attention now shifts to the item below.
Q: For the compound shown here, `COc1ccc(Cl)c(CC(=O)N2CC[C@H]3[C@H]([C@H](O)C(F)(F)F)CCC[C@@H]3[C@@H]2C)c1C#N` , give the reported inhibition at 10 µM.
Ans: 0

Hello, the source for this data is patent US20240043400A1, in case you need it.
